Values were extracted from ChEMBL document CHEMBL3627665.

Biological target: Kynurenine 3-monooxygenase (Saccharomyces cerevisiae (strain ATCC 204508 / S288c) (Baker's yeast), UniProt P38169)
Sequence (P38169 whole entry): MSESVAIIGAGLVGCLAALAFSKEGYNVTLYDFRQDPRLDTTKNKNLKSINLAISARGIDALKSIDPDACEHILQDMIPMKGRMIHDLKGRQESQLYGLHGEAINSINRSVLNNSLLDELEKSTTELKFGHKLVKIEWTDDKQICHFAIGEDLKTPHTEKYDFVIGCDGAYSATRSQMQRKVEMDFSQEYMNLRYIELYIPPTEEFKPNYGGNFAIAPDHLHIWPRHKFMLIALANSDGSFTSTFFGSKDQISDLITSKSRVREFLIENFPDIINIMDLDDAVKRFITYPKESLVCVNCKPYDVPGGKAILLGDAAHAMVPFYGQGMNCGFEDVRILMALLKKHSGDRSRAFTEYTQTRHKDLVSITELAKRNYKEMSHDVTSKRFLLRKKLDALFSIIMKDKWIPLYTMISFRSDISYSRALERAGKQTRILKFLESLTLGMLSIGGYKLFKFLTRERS
Experiment: Inhibition of yeast KMO
pIC50: −log10 of the molar value.
MEASURED_METRIC: pIC50

* O=C(O)C1CC1C(=O)c1ccc(Cl)c(Cl)c1 (stereo unspecified) | 7.13
